Attribution: ChEMBL document CHEMBL1124793

# Tested on: Enterobacter cloacae
# Assay Overview: In vitro inhibitory activity against Enterobacter cloacae EB5
# Assay type: functional
Listed compounds paired with reported MIC
Value expressed in µg/mL; do not type the unit.

Example cases with answers are listed next.
1) CS(=O)(=O)OC1=C(C(=O)O)N2C(=O)[C@@H](NC(=O)COc3ccccc3)[C@H]2SC1
128
2) N[C@@H](C(=O)N[C@@H]1C(=O)N2C(C(=O)O)=C(Cl)CS[C@H]12)c1ccccc1 [CEFACLOR ANHYDROUS]
32
3) CS(=O)(=O)OC1=C(C(=O)O)N2C(=O)[C@@H](NC(=O)COc3ccccc3)[C@H]2CC1
128
4) N[C@@H](C(=O)N[C@@H]1C(=O)N2C(C(=O)O)=C(Cl)CC[C@H]12)c1ccccc1 [LORACARBEF ANHYDROUS]
4
5) COCC1=C(C(=O)O)N2C(=O)[C@@H](NC(=O)COc3ccccc3)[C@H]2CC1
128

# input Endpoint output: MIC of CC1=C(C(=O)O)N2C(=O)[C@@H](NC(=O)COc3ccccc3)[C@H]2CC1 . Value?
# output 128

# input Which MIC value is on record for CO/N=C(\C(=O)N[C@@H]1C(=O)N2C(C(=O)[O-])=C(C[n+]3ccccc3)CC[C@H]12)c1csc(N)n1 ?
# output 0.06

# input Requested field: MIC. Item: CO/N=C(\C(=O)N[C@@H]1C(=O)N2C(C(=O)O)=CCS[C@H]12)c1csc(N)n1 [CEFTIZOXIME]
# output 0.06
